Known GI50 of a selection of molecules
# System: Tel-cKit/T670I-BaF3
# procedure.summary: Proliferation of Tel-cKit/T670I-BaF3 cells, CCK8 cell viability assay
# Assay type: cell-based
# condition.label: Mus musculus, 72 hours, stably expressing cKIT/T670I

>  <molecule>
CC(=O)Nc1cc(Oc2ccc(NC(=O)Cc3cccc(F)c3F)cc2)ncn1

>  <GI50>
> 10 µM

$$$$
>  <molecule>
CC(=O)Nc1cc(Oc2ccc(NC(=O)Cc3ccccc3Br)cc2)ncn1

>  <GI50>
> 10 µM

$$$$

Next:
// query GI50 value for entry CC(=O)Nc1cc(Oc2ccc(NC(=O)C(C)c3ccc(C)cc3)cc2)ncn1 (stereo not drawn)
> 10 µM

Just for reference, patent US11602534B2 is where these values come from.
